These measurements were taken from patent US9073941B2.

molecular target: lipoamide dehydrogenase (Lpd) (Mycobacterium tuberculosis (strain ATCC 25618 / H37Rv)); test: Lipoamide Dehydrogenase (Lpd) Inhibition Assay; assay type: biochemical; details: concentration required for 50% inhibition of LPD activity; DTNB detection, OD405 nm
assay-readout: pIC50
In simple prose, pIC50 is minus the logarithm base ten of a concentration in moles per litre.

Recorded results for 4 compounds are shown here.
>  <compound>
CCOC(=O)c1c(NS(=O)(=O)c2ccccc2)n(CCCOC)c2nc3ccccc3nc12

>  <pIC50>
5.88

$$$$
>  <compound>
CCc1ccc2nc(O)c(CNc3ccc(N(C)C)cc3)cc2c1

>  <pIC50>
5.33

$$$$
>  <compound>
CC(C)n1cnc(S(=O)(=O)N2CCC(C(=O)Nc3ccccc3)CC2)c1

>  <pIC50>
5.56

$$$$
>  <compound>
CCOc1ccc2nc(NC(=O)C3CCN(S(=O)(=O)c4cn(CC)cn4)CC3)sc2c1

>  <pIC50>
5.46

$$$$

Given item `COc1ccc(NC(=O)C2CCN(S(=O)(=O)c3cn(C(C)C)cn3)CC2)cc1Cl` , the value recorded as its pIC50 is 5.77

Given item `Cn1c(=O)nc2[nH]nc(/C=C/c3ccccc3)nc-2c1=O` , the value recorded as its pIC50 is 5.67

Given item `COCCN(C(=O)c1cccs1)c1nc2c(s1)CCc1c-2cnn1C` , the value recorded as its pIC50 is 5.79

Given item COC1CCCC(C(=O)N(CC2CCCO2)c2nc3c(s2)CCc2c-3cnn2C)C1 (centres unmarked) , the value recorded as its pIC50 is 5.49

Given item `CCn1cnc(S(=O)(=O)N2CCC(C(=O)Nc3cccc(-c4ccno4)c3)CC2)c1` , the value recorded as its pIC50 is 5.57

Given item `CCc1ccc(NC(=O)C2CCN(S(=O)(=O)c3cn(C(C)C)cn3)CC2)cc1` , the value recorded as its pIC50 is 5.54
